system: MCF-7 (breast carcinoma) cell line; test: MTT cytotoxicity assay, MCF-7; format: cell-based; settings: Homo sapiens, MCF7, 48 h, mean of three independent experiments, read-out: IC50 (μM) Mean ± SD, MCF-7
test-readout: IC50 (µM)
Unit µM implied. Number only.

Known results for compounds:
# structure-smiles, IC50 (µM)
rows = [
    ("O=C(OCCCCCOC(=O)c1cc2c3ccccc3n(Cc3ccccc3F)c2cn1)c1cc2c3ccccc3n(Cc3ccccc3F)c2cn1", 36),
    ("O=C(OCCCCCCOC(=O)c1cc2c3ccccc3n(Cc3ccccc3F)c2cn1)c1cc2c3ccccc3n(Cc3ccccc3F)c2cn1", 42.4),
]

Input: Reported IC50, compound Cc1ccc(Cn2c3ccccc3c3cc(C(=O)OCCCCOC(=O)c4cc5c6ccccc6n(Cc6ccc(C)cc6)c5cn4)ncc32)cc1 : ____
Output: 49.1

Input: Please give the result for COC(=O)c1cc2c3ccccc3n(Cc3ccccc3F)c2cn1 too.
Output: 53.9

Input: Please give the result for Cc1ccccc1Cn1c2ccccc2c2cc(C(=O)OCCCCCCCCOC(=O)c3cc4c5ccccc5n(Cc5ccccc5C)c4cn3)ncc21 too.
Output: 44.9

Input: Please give the result for O=C(OCCCCCCOC(=O)c1cc2c3ccccc3n(Cc3ccccc3)c2cn1)c1cc2c3ccccc3n(Cc3ccccc3)c2cn1 too.
Output: 75.5

Input: Please give the result for Cc1ccc(Cn2c3ccccc3c3cc(C(=O)OCCCCCCCCOC(=O)c4cc5c6ccccc6n(Cc6ccc(C)cc6)c5cn4)ncc32)cc1 too.
Output: 43.1

Input: Please give the result for Cc1ccc(Cn2c3ccccc3c3cc(C(=O)OCCCCCOC(=O)c4cc5c6ccccc6n(Cc6ccc(C)cc6)c5cn4)ncc32)cc1 too.
Output: 49.4

Input: Please give the result for Cc1ccccc1Cn1c2ccccc2c2cc(C(=O)OCCCCCOC(=O)c3cc4c5ccccc5n(Cc5ccccc5C)c4cn3)ncc21 too.
Output: 59.3

Input: Please give the result for Cc1ccc(Cn2c3ccccc3c3cc(C(=O)OCCCCCCOC(=O)c4cc5c6ccccc6n(Cc6ccc(C)cc6)c5cn4)ncc32)cc1 too.
Output: 55

Input: Please give the result for O=C(OCCCCOC(=O)c1cc2c3ccccc3n(Cc3ccccc3)c2cn1)c1cc2c3ccccc3n(Cc3ccccc3)c2cn1 too.
Output: 70.9

Input: Please give the result for O=C(OCCCOC(=O)c1cc2c3ccccc3n(Cc3ccccc3)c2cn1)c1cc2c3ccccc3n(Cc3ccccc3)c2cn1 too.
Output: 73.5

* * *

test system: MCF-7 (breast carcinoma) cell line; assay: MTT cytotoxicity assay, MCF-7; format: cell-based; conditions: Homo sapiens, MCF7, 48 h, mean of three independent experiments, read-out: IC50 (μM) Mean ± SD, MCF-7
# IC50 values compiled below
Unit µM implied. Number only.

# compound, target-under-test, endpoint-unit, test-value
measured = [
    ("O=c1[nH]cc(F)c(=O)[nH]1 [Compound 5-FU, 5-fluorouracil, reference compound]", "MCF-7 (breast carcinoma) cell line", "µM", 57.7),
    ("O=C(OCCCOC(=O)c1cc2c3ccccc3n(Cc3ccccc3F)c2cn1)c1cc2c3ccccc3n(Cc3ccccc3F)c2cn1", "MCF-7 (breast carcinoma) cell line", "µM", 25.2),
    ("Cc1ccc(Cn2c3ccccc3c3cc(C(=O)OCCCOC(=O)c4cc5c6ccccc6n(Cc6ccc(C)cc6)c5cn4)ncc32)cc1", "MCF-7 (breast carcinoma) cell line", "µM", 28.4),
    ("O=C(OCCCCCOC(=O)c1cc2c3ccccc3n(Cc3ccccc3)c2cn1)c1cc2c3ccccc3n(Cc3ccccc3)c2cn1", "MCF-7 (breast carcinoma) cell line", "µM", 76.9),
    ("Cc1ccccc1Cn1c2ccccc2c2cc(C(=O)OCCCCCCOC(=O)c3cc4c5ccccc5n(Cc5ccccc5C)c4cn3)ncc21", "MCF-7 (breast carcinoma) cell line", "µM", 64.5),
]

Input: Reported IC50, compound O=C(OCCCCOC(=O)c1cc2c3ccccc3n(Cc3ccccc3F)c2cn1)c1cc2c3ccccc3n(Cc3ccccc3F)c2cn1 : ____
Output: 25.7

Input: Please give the result for Cc1ccccc1Cn1c2ccccc2c2cc(C(=O)OCCCCOC(=O)c3cc4c5ccccc5n(Cc5ccccc5C)c4cn3)ncc21 too.
Output: 76.7
